Test system: SF-295 CNS
Assay: NCI tumour cell line growth inhibition, 48 h
Endpoint Name: TGI

Worked examples, 5 compounds total:
Compound | Endpoint Name | Result
COc1cc(-c2cc(=O)c3c(O)c(OC)c(OC)c(OC)c3o2)cc(OC)c1OC | TGI | > 100 µM
COc1ccc2c(c1)CCC/C2=N\NS(=O)(=O)c1c(C)cc(C)cc1C | TGI | 94.6 µM
Cc1ccc(S(=NS(=O)(=O)c2ccc(C)cc2)c2ccc(C)cc2)cc1 | TGI | > 100 µM
COC(=O)/C(=N\Nc1nnc(C)n1N)C(C#N)c1ccccc1 (centres undefined) | TGI | > 100 µM
CC(NC(=O)C(Cc1ccc(OC(=O)c2ccccc2)cc1)NC(=O)OC(C)(C)C)C(=O)NCC(=O)NC(Cc1ccccc1)C(=O)NN (centres undefined) | TGI | > 100 µM

[ask] Answer with the recorded TGI of [CH3][Sn]1([CH3])[O]CC(COc2cc(Cl)c(Cl)cc2Cl)[O]1 (centres undefined) only.
[reply] > 100 µM

[ask] Look up TGI of CCOC(=O)CCC(NC(=O)c1ccc(Nc2nc3ccccc3nc2C(=O)OCC)cc1)C(=O)OCC (centres undefined) and report it.
[reply] 23 µM

[ask] Read off the recorded TGI for C/C(=N/O)c1ccc(Nc2cc(-n3ccnc3)c3ccccc3n2)cc1
[reply] > 100 µM

[ask] Provide TGI value for the following compound: CC(/C=N/N=C(N)N)=N\N=C(N)N
[reply] 856 µM

====

Tested on: SK-MEL-2 melanoma
Test: NCI tumour cell line growth inhibition, 48 h
Endpoint Name: TGI (µM)
Just the number please, in µM, no unit attached.

Molecule | Numeric Readout
C=C(C)[C@@H]1CC[C@]2(CO)CC[C@]3(C)[C@H](CC[C@@H]4[C@@]5(C)CC[C@H](NCO)C(C)(C)[C@@H]5CC[C@]43C)[C@@H]12 | 1.83
CC(=O)Nc1ccc(-c2nnc(SCC(=O)Nc3ccc(Cl)cc3)o2)cc1 | 49
O=C1C(c2c(O)[nH]c3ccc(S(=O)(=O)NCCO)cc23)=Nc2ccccc21 | 17.9
CN(C)CN(C)c1nc(N(C)C)nc(N(C)CN(C)C)n1 | 42.6
NS(=O)(=O)c1ccc(NC(=O)c2cccc(NC3=C(Cl)C(=O)N(Cc4ccccc4)C3=O)c2)cc1 | 33.2

[ask] State its TGI: O=S1(=O)c2ccccc2N=C(c2ccccc2Cl)CC1c1ccc(F)cc1 (stereo not given)
[reply] 35.9

====

This section presents compounds with their documented TGI values.
Tested on: HCT-116 colon
Assay: NCI tumour cell line growth inhibition, 48 h

Below: 8 compounds and their reported TGI.
Compound | TGI
O=c1[nH]c2ccc(CC(=S)N3CCCCC3)cc2s1 | > 100 µM
CN(C)CCCNC(=O)c1cn2c(ccc3sc4ccccc4c(=O)c32)n1 | 2.98 µM
Cc1ccc(S(=NS(=O)(=O)c2ccc(C)cc2)c2ccc(C)cc2)cc1 | > 100 µM
Cc1ccc(/C=C2/N=C(N/N=C\c3ccccc3)NC2=O)cc1 | > 100 µM
Cc1cc2ccc(N)nc2[nH]c1=O | > 100 µM
COC(=O)C(C(=O)C(N)=O)c1csc(-n2nc(-c3ccccc3)cc2-c2ccccc2)n1 (configuration not stated) | > 31.6 µM
CCCCCCCCCCCCCCCCCC(=O)NCC(COP(=O)(O)O)OCC (configuration not stated) | > 100 µM
FC(F)(F)c1ccc2nc(Sc3ccc4ccccc4c3)cnc2c1 | > 100 µM

[ask] State the measured TGI (HCT-116 colon) of C=C1CC2[C@H](C)C(=O)CCC2(C)C2=C1C1CCC(C(C)CCC(=C)C(C)C(=O)O)C1(C)CC2=O (some centres not stated)
[reply] > 100 µM

[ask] Enter recorded TGI with HCT-116 colon for C/C(CC(=O)Nc1cccc([N+](=O)[O-])c1)=N\NC(=O)CC#N here.
[reply] > 100 µM

[ask] State measured TGI of the compound Cc1ccc(S(=O)(=O)NC(CO)C(=O)O)cc1 (configuration not stated) with HCT-116 colon.
[reply] > 100 µM

[ask] Report measured TGI on HCT-116 colon; entry: CC(C)NC(=O)OCc1c(COC(=O)NC(C)C)c(-c2cc[n+](COC(=O)C3CCCCC3)cc2)n2c1CCC2
[reply] > 100 µM

[ask] With HCT-116 colon as the test system, provide measured TGI for this compound: COC(=O)C(NC(=O)OC(C)(C)C)P(=O)(OC)OC (configuration not stated)
[reply] > 100 µM

[ask] Please tell me the measured TGI for CCCCCCCCCCCCOP(=O)(O)OP(=O)(O)OCC1OC(n2cc(C)c(=O)[nH]c2=O)CC1O (configuration not stated) ; system: HCT-116 colon.
[reply] > 100 µM

[ask] Report TGI under test system HCT-116 colon for O=C(N/N=C\c1ccc([N+](=O)[O-])s1)c1ccncc1 .
[reply] 19.5 µM

[ask] Return reported TGI for target or system HCT-116 colon, item CCOC(=O)C(C)N1C(=O)c2ccccc2S1(=O)=O (configuration not stated) .
[reply] > 100 µM

[ask] Supply TGI measured with HCT-116 colon for CC(NC(=O)C(Cc1ccc(OC(=O)c2ccccc2)cc1)NC(=O)OC(C)(C)C)C(=O)NCC(=O)NC(Cc1ccccc1)C(=O)NN (configuration not stated) .
[reply] > 100 µM

[ask] Report TGI on HCT-116 colon for this entry: O=C(C=C=Nc1ccccc1)C(=O)N=C=Cc1ccccc1
[reply] 3.84 µM

[ask] Enter TGI (test system HCT-116 colon) for CC1=C(N2CC2)C(=O)c2ccccc2C1=O
[reply] 12 µM

[ask] Please report TGI with HCT-116 colon for item Cc1ccc2c(c1C)C(=O)/C(=C/c1cccc(C)c1C(=O)O)C2 .
[reply] > 100 µM

[ask] Return reported TGI for target or system HCT-116 colon, item CCNC(=S)N/N=C(\C)c1cccc(C)n1 .
[reply] 53.1 µM

[ask] State measured TGI of the compound COc1cc(/C=N/NC2=NCCN2)ccc1O with HCT-116 colon.
[reply] > 100 µM
